assayEndpoint: melting point

In [3]: df
Out[3]:
                                    compound  valuereported
 0  O=C(Nc1cccc(-c2ccnc3c(C(=O)c4cccs4)cnn23)c1)OCC(Cl)(Cl)Cl  197 to 200 °C
 1  CCS(=O)c1cccnc1S(=O)(=O)NC(C)(C)C (stereo not given)  129 to 131 °C
 2  NC(=O)OCC(O)COc1cc(-c2cccc(Cl)c2)on1 (stereo not given)  149 to 150 °C
 3  CC(=O)Nc1cc2c(cc1[N+](=O)[O-])OC(C)(C)[C@@H](O)[C@@H]2N1CCCC1=O (relative stereo)  240 to 241 °C
 4  Cc1cc(-n2ccnc2)c2cccc(OCc3c(Cl)ccc(S(=O)(=O)N4CCC[C@H]4C(=O)NCCCNC(=O)c4ccc(C#N)cc4)c3Cl)c2n1         118 °C
 5  COc1cc2c(cc1OC)C(C(CO)CO)N(C(=O)Nc1ccccc1)CC2 (stereo not given)  191 to 192 °C
 6  COC(=O)NC1=NCC(c2ccccc2)CN1C (stereo not given)  176 to 177 °C
 7  O=C(Nc1c(C(O)(C(F)(F)F)C(F)(F)F)ccc2ccccc12)c1cc2ccccc2s1  132 to 134 °C
 8     O=S1(=O)CCCS(=O)(=O)C1(CCCCl)c1ccccc1         182 °C
 9  Cc1cn(-c2ccc(N3C[C@H](COS(C)(=O)=O)OC3=O)cc2F)cn1  151 to 153 °C
10       O=C(O)c1cccc2cc(Oc3cc(Cl)ncn3)ccc12  194 to 195 °C
11  O=C(O)c1cccc2c1CC(N(CCCc1c[nH]c3c(F)cc(F)cc13)C1CCC1)CO2 (stereo not given)  130 to 131 °C
12    Fc1ccc(-c2cn([C@H]3CN4CCC3CC4)nn2)cc1F         122 °C
13  COc1ccc(-c2coc3cc(OCC(O)CN4CCNCC4)ccc3c2=O)cc1OC (stereo not given)    84 to 85 °C
14  CCCOc1ccccc1C1=NC(=O)C2=NC(c3ccccc3)=NC2=N1  259 to 260 °C
15    COc1cc(C=O)ccc1OCCN1c2ccccc2Sc2ccccc21         130 °C
16  Cc1cccc(N(c2ccccc2)c2ccc(N(c3ccccc3)c3cccc(C)c3)cc2)c1  170 to 171 °C
17             CC(C)=Nc1c2c(nc3ccccc13)CCCC2  127 to 130 °C
18  N#Cc1cn(C2CCc3ccccc3NC2=O)nn1 (stereo not given)  214 to 216 °C
19  CC(C)(C)OC(=O)c1ccccc1-c1ccc(CNC(=S)NN)cc1        > 45 °C

* * *

As shown below, each of these molecules has a reported melting point value.
assayEndpoint: melting point

In [3]: df
Out[3]:
                                   molecule  assayendpoint  valuereported
0  OC(Cn1cncn1)(c1ccc(F)cc1F)C(F)(F)SC1CC1 (stereo not given)  melting point   99 to 102 °C
1         CCCCCCCCCCCCCCCCCCNc1nc(N)nc(N)n1  melting point          91 °C
2  CC1CN(Cc2n[nH]c3ccccc23)CCN1c1ccccc1 (single isomer, unassigned; (+))  melting point  164 to 165 °C
3  Nc1ccccc1CC1NCCc2ccccc21 (stereo not given)  melting point    69 to 71 °C
4  COC(c1ccc(NC(=O)c2c(C)nn(C)c2C)c(C(C)CC(C)C)c1)(C(F)(F)F)C(F)(F)F (stereo not given)  melting point    94 to 96 °C
5  Cc1c(C(=O)Nc2ccc(N3CCN(CCO)CC3)c(C#N)c2)cnn1-c1ccc(F)cc1  melting point  179 to 180 °C
6              CCOC(=O)NC(=S)OCc1ccc(Cl)cc1  melting point          95 °C
7                 Nc1cc2c(cc1Sc1ccccc1)CCC2  melting point          67 °C
8           Cc1cc(O)n2nc(CN=[N+]=[N-])nc2n1  melting point  193 to 194 °C
9      NC(=O)Cc1cccc2c(=O)cc(C3=CCCCC3)oc12  melting point  244 to 245 °C
